system: NL-RLuc virus; assay: Inhibition of HIV replication (NL-RLuc virus, luciferase readout in MT-2 cells); assay type: cell-based; conditions: Human immunodeficiency virus 1, MT2, 120 h, read-out: Activity
EC50 reference

Cc1cc(N2CCc3cc(-c4c(C)nc(C)c([C@H](OC(C)(C)C)C(=O)O)c4-c4ccc5c(c4)CCCO5)ccc3C2)ncn1 :: < 100 nM

In plain terms, Cc1nc(C)c([C@H](OC(C)(C)C)C(=O)O)c(-c2ccc3c(c2)CCCO3)c1-c1ccc(OCCc2ccc(F)cc2F)cc1 has a documented EC50 of < 100 nM

In plain terms, Cc1nc(CCCC2CCOCC2)c(-c2ccc(OCCc3ccc(F)cc3)cc2)c(-c2ccc3c(c2)CCCO3)c1[C@H](OC(C)(C)C)C(=O)O has a documented EC50 of < 100 nM

In plain terms, Cc1nc(C)c([C@H](OC(C)(C)C)C(=O)O)c(-c2ccc3c(c2)CCCO3)c1-c1ccc2c(c1)CCN(C)C2 has a documented EC50 of 100 to 1000 nM

In plain terms, Cc1nc(C)c([C@H](OC(C)(C)C)C(=O)O)c(-c2ccc3c(c2)CCCO3)c1-c1ccc2c(c1)CCN(CCCc1ccc(F)cc1)C2 has a documented EC50 of < 100 nM

In plain terms, Cc1nc(CN(C)C)c(-c2ccc(OCCc3ccc(F)cc3)cc2)c(-c2ccc3c(c2)CCCO3)c1[C@H](OC(C)(C)C)C(=O)O has a documented EC50 of < 100 nM

In plain terms, Cc1cccc(CN2CCc3cc(-c4c(C)nc(C)c([C@H](OC(C)(C)C)C(=O)O)c4-c4ccc5c(c4)CCCO5)ccc3C2)c1F has a documented EC50 of < 100 nM

In plain terms, Cc1cc(F)ccc1CN1CCc2cc(-c3c(N)nc(C)c([C@H](OC(C)(C)C)C(=O)O)c3-c3ccc4c(c3)CCCO4)ccc2C1 has a documented EC50 of < 100 nM

In plain terms, CCOCCOCCOCc1nc(C)c([C@H](OC(C)(C)C)C(=O)O)c(-c2ccc3c(c2)CCCO3)c1-c1ccc(OCCc2ccc(F)cc2)cc1 has a documented EC50 of < 100 nM

In plain terms, Cc1nc(N)c(-c2ccc3c(c2)CCN(Cc2cccc(F)c2C)C3)c(-c2ccc3c(c2)CCCO3)c1[C@H](OC(C)(C)C)C(=O)O has a documented EC50 of < 100 nM
